# assay_system: Adrenergic receptor alpha-1 (Rattus norvegicus, UniProt P15823+P23944+P43140)
# assay_procedure: Antagonist activity at alpha1 adrenoceptor in Sprague-Dawley rat aorta assessed as inhibition of norepinephrine-induced contraction treated 30 mins before norepinephrine challenge
Is pA2 at least 8? Then t. If not, f.

# compound, assay_system, classification
measured = [
    ("COc1ccc(NCCOc2ccccc2)c(C2c3cc(OC)c(OC)cc3CCN2CCOc2ccccc2)c1 (stereo not drawn)", "Adrenergic receptor alpha-1 (Rattus norvegicus, UniProt P15823+P23944+P43140)", "t"),
    ("COc1ccc(N)c(C2c3cc(OC)c(OC)cc3CCN2CCOc2ccccc2)c1 (stereo not drawn)", "Adrenergic receptor alpha-1 (Rattus norvegicus, UniProt P15823+P23944+P43140)", "f"),
    ("COc1cc2c(cc1OC)C(c1ccccc1[N+](=O)[O-])N(CCOc1ccccc1)CC2 (stereo not drawn)", "Adrenergic receptor alpha-1 (Rattus norvegicus, UniProt P15823+P23944+P43140)", "t"),
    ("c1ccc(OCCNc2ccccc2C2c3ccccc3CCN2CCOc2ccccc2)cc1 (stereo not drawn)", "Adrenergic receptor alpha-1 (Rattus norvegicus, UniProt P15823+P23944+P43140)", "f"),
    ("COc1cc2c(cc1OC)C(c1ccccc1NCCOc1ccccc1)N(CCOc1ccccc1)CC2 (stereo not drawn)", "Adrenergic receptor alpha-1 (Rattus norvegicus, UniProt P15823+P23944+P43140)", "t"),
    ("Nc1ccccc1C1c2ccccc2CCN1CCOc1ccccc1 (stereo not drawn)", "Adrenergic receptor alpha-1 (Rattus norvegicus, UniProt P15823+P23944+P43140)", "f"),
    ("COc1cc2c(cc1OC)C(c1ccccc1N)N(CCOc1ccccc1)CC2 (stereo not drawn)", "Adrenergic receptor alpha-1 (Rattus norvegicus, UniProt P15823+P23944+P43140)", "f"),
    ("COc1ccc2c(c1)C(c1ccccc1N)N(CCOc1ccccc1)CC2 (stereo not drawn)", "Adrenergic receptor alpha-1 (Rattus norvegicus, UniProt P15823+P23944+P43140)", "f"),
    ("COc1ccc([N+](=O)[O-])c(C2c3cc(OC)c(OC)cc3CCN2CCOc2ccccc2)c1 (stereo not drawn)", "Adrenergic receptor alpha-1 (Rattus norvegicus, UniProt P15823+P23944+P43140)", "t"),
    ("COc1ccc2c(c1)C(c1ccccc1NCCOc1ccccc1)N(CCOc1ccccc1)CC2 (stereo not drawn)", "Adrenergic receptor alpha-1 (Rattus norvegicus, UniProt P15823+P23944+P43140)", "f"),
]
